B1: TPR t1 (parent)
chain: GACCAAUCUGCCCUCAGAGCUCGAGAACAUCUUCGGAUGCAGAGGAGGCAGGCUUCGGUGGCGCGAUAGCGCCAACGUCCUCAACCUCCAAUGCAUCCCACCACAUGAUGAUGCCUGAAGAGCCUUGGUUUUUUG

variants of: B1; assay: polymerase ribozyme fitness, log enrichment relative to wild type (log ratio); higher = more active; in vitro selection for triplet polymerase activity
# polymerase ribozyme fitness (log ratio) binned as class A = under -3, class B = from -3 up to -1, class C = -1 and over

G69C U106A: class B

stdin: Band assignment needed for C3U C123A please.
stdout: class C

stdin: Band assignment needed for C3U C8A C79U A121C please.
stdout: class C

stdin: Band assignment needed for G45U C73U U87A A105U G135C please.
stdout: class B

stdin: Band assignment needed for G47A U96G G110A please.
stdout: class A

stdin: Band assignment needed for C73U U96A please.
stdout: class B

stdin: Band assignment needed for U7G C102A please.
stdout: class C

stdin: Band assignment needed for A41U A105C please.
stdout: class A

stdin: Band assignment needed for C34A G128C please.
stdout: class A

stdin: Band assignment needed for C4G G61A U87G please.
stdout: class B

stdin: Band assignment needed for C53U C72G C88U A105G please.
stdout: class B

Cited source for all entries: the RNAGym collection of RNA variant scans (doi:10.1073/pnas.2313332121)
